These data points were gathered from ChEMBL document CHEMBL6115028.

The following compounds are shown together with reported CC50 at 72 h values.
protocolDescription: Cytotoxicity against african green monkey Vero cells assessed as reduction in cell viability measured after 72 hrs by MTT assay
Format: toxicity, cell-based
conditionSet: chlorocebus sabaeus

CC50 at 72 h for Cc1c(O)nc(SCC(C)C)nc1C(C)c1c(F)cccc1F (stereo unspecified) ?
200 µM

Next:
Could you tell me which CC50 at 72 h is on file for Cc1c(O)nc(SC2CCCCC2)nc1C(C)c1c(F)cccc1F (stereo unspecified) ?
> 200 µM

Form field: reported CC50 at 72 h of CCCCSc1nc(O)c(C)c(C(C)c2c(F)cccc2F)n1 (stereo unspecified)
112 µM

###

protocolDescription: Selectivity index, ratio of CC50 for human MT4 cells to EC50 for antiviral activity against HIV-1 infected in human MT4 cells
Format: toxicity, cell-based
conditionSet: read-out: Ratio CC50/EC50
quantityMeasured: selectivity ratio

Look up selectivity ratio for this compound: CCC(C)Oc1nc(N)cc(S(=O)(=O)c2cccc(C)c2)n1 (stereo unspecified)
> 43

###

Tested on: Human immunodeficiency virus 1
protocolDescription: Antiviral activity against HIV-1 NL4-3 infected in human MT2 cells assessed as reduction in viral replication assessed as inhibition of viral growth incubated for 72 hrs by ELISA
Format: functional, organism-based
conditionSet: Human immunodeficiency virus 1, NL4-3, MT2, 72 h
quantityMeasured: EC50 (nM)
Enter your answer as a number in nM; do not include the unit.

Here's what some known entries look like.
Value lookup for EC50; key = CSCSc1nc(Cc2ccccc2)cc(=O)[nH]1
20000

Please look up its EC50: CCc1c(O)nc(SCSC)nc1Cc1ccccc1
800

If you can, please state the reported EC50 value of CSCSc1nc(O)c(C)c(Cc2ccccc2)n1 .
1200

Which EC50 value belongs to CCc1c(Cc2ccccc2)nc(SC(C)CC)[nH]c1=O (stereo not drawn) ?
40

Record request: EC50 value, item CCC(C)Sc1nc(Cc2ccccc2)c(C(C)C)c(=O)[nH]1 (stereo not drawn)
100

Quick one: EC50 for CCC(C)Sc1nc(O)c(C)c(Cc2ccccc2)n1 (stereo not drawn) ?
200

New cases:
What does the record list as EC50 for CSCSc1nc(O)c(C(C)C)c(Cc2ccccc2)n1 ?
40

Entry under review: CCC(C)Sc1nc(O)cc(Cc2ccccc2)n1 (stereo not drawn) . Reported EC50?
80

###

targetEntity: Human immunodeficiency virus type 1 reverse transcriptase (Human immunodeficiency virus 1, UniProt Q72547)
protocolDescription: Inhibition of recombinant HIV-1 reverse transcriptase associated RNA-dependent DNA polymerase activity incubated for 30 mins by liquid scintillation method
quantityMeasured: pIC50
For clarity, pIC50 is expressed as the negative log10 of concentration in mol/L.

Answered cases to consult:
Value lookup for pIC50; key = CCC(C)Oc1nc(Cc2cc(C)cc(C)c2)c(C)c(=O)[nH]1 (stereo not drawn)
5.70

// query pIC50 value for entry Cc1cccc(Cc2cc(=O)[nH]c(OC3CCCCC3)n2)c1
5.74

Please turn your attention to the following entry.
Tell me the measured pIC50 of CCC(C)Oc1nc(Sc2ccccc2)nc(N)c1C (stereo not drawn) , please.
4.55

###

# key: entry, value: CC50
Tested on: MT4
protocolDescription: Cytotoxicity against human MT4 cells assessed as reduction in cell growth incubated for 5 days by MTT assay
Format: functional
conditionSet: MT4, 120 h, time 5 day

Known results for compounds:
Look up CC50 for this compound: CCC(C)Sc1nc(Cc2cc(C)cc(C)c2)c(Br)c(=O)[nH]1 (stereo not given)
153 µM

// query CC50 value for entry C=CCc1c(Cc2cc(C)cc(C)c2)nc(SCC2OCCC(C)O2)[nH]c1=O (stereo not given)
> 100 µM

May I ask what CC50 has been recorded for CCC(C)Sc1nc(Cc2cc(C)cc(C)c2)cc(=O)[nH]1 (stereo not given) ?
150 µM

Returns the measured CC50 for the input compound. Input: CCC(C)Sc1nc(Cc2cc(C)cc(C)c2)c(C)c(=O)[nH]1 (stereo not given)
86 µM

Field: next compound
For the compound CCC(C)Sc1nc(Cc2cc(C)cc(C)c2)c(I)c(=O)[nH]1 (stereo not given) , what CC50 is on record?
144 µM
